- Assay target: CA XII (Homo sapiens, UniProt O43570)
- Sequence (O43570 25-354): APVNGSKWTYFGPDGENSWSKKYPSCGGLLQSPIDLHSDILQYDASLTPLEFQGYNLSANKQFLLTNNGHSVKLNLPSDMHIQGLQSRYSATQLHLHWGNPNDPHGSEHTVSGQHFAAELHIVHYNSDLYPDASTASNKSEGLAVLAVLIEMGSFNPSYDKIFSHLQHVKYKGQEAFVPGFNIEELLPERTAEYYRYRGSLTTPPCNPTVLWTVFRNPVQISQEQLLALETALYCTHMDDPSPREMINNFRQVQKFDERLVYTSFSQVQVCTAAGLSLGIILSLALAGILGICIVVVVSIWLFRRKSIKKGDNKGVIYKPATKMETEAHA
- Assay details: CA-catalysed CO2 hydration stopped-flow inhibition assay, CA XII
- Format: biochemical
- Conditions used: mean from 3 assays, cells/sentences stated in nM
Kindly supply the reported Ki values for the records listed here.
The answer should read as a number with its unit following.

Exercise: Data request, read-out Ki, for NS(=O)(=O)c1cccc(NC(=O)c2cc3ccccc3oc2=O)c1 [16e]
Key: 69.8 nM

Exercise: Ki for NS(=O)(=O)c1cccc(NC(=O)c2cc3cc(F)ccc3oc2=O)c1 [16i] ?
Key: 49.5 nM

Exercise: Field request: Ki | item: NS(=O)(=O)c1ccc(NC(=O)c2cc3cc(Cl)cc(Cl)c3oc2=O)cc1 [9d]
Key: 46.3 nM

Exercise: Data request, read-out Ki, for CCN(CC)c1ccc2cc(C(=O)OCC(=O)Nc3ccc(S(N)(=O)=O)cc3)c(=O)oc2c1 [compound 22]
Key: 65.7 nM

Exercise: Query (compound): NS(=O)(=O)c1cccc(NC(=O)c2cc3cc(Br)ccc3oc2=O)c1 [16c] ; field requested: Ki
Key: 54.2 nM

Exercise: Given CCOC(=O)c1cc2ccc(OCC(=O)Nc3ccc(S(N)(=O)=O)cc3)cc2oc1=O [5a] , state its recorded Ki.
Key: 20.3 nM

Exercise: Please give the measured Ki for this compound: NS(=O)(=O)c1ccc(NC(=O)c2cc3cc(Cl)ccc3oc2=O)cc1 [9b]
Key: 28.4 nM

Exercise: Suppose we examine the compound NS(=O)(=O)c1ccc(NC(=O)c2cc3cc(Br)ccc3oc2=O)cc1 [9c] ; what Ki value has been reported?
Key: 16.2 nM

----------
- Assay target: CA II (Homo sapiens)
- Assay details: CA-catalysed CO2 hydration stopped-flow inhibition assay, CA II
- Assay type: biochemical
- Conditions used: mean from 3 assays, cells/sentences stated in nM
Metric name: log10 of Ki (log10 of the value in nM)
Values below are the log10 of the recorded Ki, with nM as the unit.

Exercise: GET /values?readout=log10 of Ki&item= NS(=O)(=O)c1cccc(NC(=O)c2cc3ccccc3oc2=O)c1 [16e]
Key: 1.73

Exercise: Look at this molecule and give its reported log10 of Ki. COc1ccc2oc(=O)c(C(=O)Nc3cccc(S(N)(=O)=O)c3)cc2c1 [16f]
Key: 2.33

Exercise: Tell me the measured log10 of Ki of NS(=O)(=O)c1cccc(NC(=O)c2cc3cc(Br)ccc3oc2=O)c1 [16c] , please.
Key: 1.88

Exercise: Record request: log10 of Ki value, item NS(=O)(=O)c1cccc(NC(=O)c2cc3cc(F)ccc3oc2=O)c1 [16i]
Key: 1.88

Exercise: log10 of Ki for `NS(=O)(=O)c1ccc(NC(=O)c2cc3cc(Br)ccc3oc2=O)cc1` ?
Key: 1.93

Exercise: What measured log10 of Ki goes with `NS(=O)(=O)c1ccc(NC(=O)c2cc3cc(Cl)cc(Cl)c3oc2=O)cc1` ?
Key: 2.38

Exercise: Suppose we examine the molecule `CCN(CC)c1ccc2cc(C(=O)OCC(=O)Nc3ccc(S(N)(=O)=O)cc3)c(=O)oc2c1` ; what log10 of Ki value has been reported?
Key: 1.36

----------
Record form. Attribute: Ki. Fill in for each entry.
- Assay target: CA IX (Homo sapiens, UniProt Q16790)
- Assay details: CA-catalysed CO2 hydration stopped-flow inhibition assay, CA IX
- Assay type: biochemical
- Conditions used: mean from 3 assays, μM unless stated

Exercise: Param item = CCOC(=O)c1cc2ccc(OCC(=O)Nc3ccc(S(=O)(=O)NC(C)=O)cc3)cc2oc1=O [5c] ; retrieve measured Ki.
Key: 6.1 µM

Exercise: Looking for the measured Ki of COc1cc(NS(=O)(=O)c2ccc(NC(=O)c3cc4cc(Br)ccc4oc3=O)cc2)nc(OC)n1 [14c] , can you help?
Key: > 100 µM

Exercise: Using the record for COc1cc(NS(=O)(=O)c2ccc(NC(=O)c3cc4ccccc4oc3=O)cc2)nc(OC)n1 [14e] , report its Ki.
Key: > 100 µM

Exercise: Sample COc1ccc(NS(=O)(=O)c2ccc(NC(=O)c3cc4cc(Cl)cc(Cl)c4oc3=O)cc2)nn1 [11d] — what was its Ki?
Key: > 100 µM

Exercise: For the compound CC(=O)NS(=O)(=O)c1ccc(NC(=O)c2cc3cc(Br)ccc3oc2=O)cc1 [15c] , what Ki is on record?
Key: 0.91 µM

Exercise: Need Ki, item CCOC(=O)c1cc2ccc(OCC(=O)Nc3ccc(S(=O)(=O)Nc4ncnc(OC)c4OC)cc3)cc2oc1=O [5b]
Key: > 100 µM

Exercise: Endpoint output: Ki of COc1ccc(NS(=O)(=O)c2ccc(NC(=O)c3cc4cc(Cl)ccc4oc3=O)cc2)nn1 [11b] . Value?
Key: > 100 µM

Exercise: What does the record list as Ki for Cc1nnc(NS(=O)(=O)c2ccc(NC(=O)c3cc4cc(Br)ccc4oc3=O)cc2)s1 [13c] ?
Key: > 100 µM
